All values here come from patent US20100310640A1.

- study_system: HLA-DR DRB1*0101 (human)
- assay_explanation: radioligand inhibition, purified HLA-DR
IC50 listing for selected binders.
Entry rule: numbers only, all in µM.

binder: GDPLNNTTPVTGASP [Her2/neu.120]
IC50 (µM): 6.36

// next entry
Recorded IC50 (binder WNLAAMTPHDFIEHF [Cyclin D1.150] ): 6.42
